IC50 tested on Cytochrome P450 3A4 (Homo sapiens): recorded values
Sequence (P08684 whole entry): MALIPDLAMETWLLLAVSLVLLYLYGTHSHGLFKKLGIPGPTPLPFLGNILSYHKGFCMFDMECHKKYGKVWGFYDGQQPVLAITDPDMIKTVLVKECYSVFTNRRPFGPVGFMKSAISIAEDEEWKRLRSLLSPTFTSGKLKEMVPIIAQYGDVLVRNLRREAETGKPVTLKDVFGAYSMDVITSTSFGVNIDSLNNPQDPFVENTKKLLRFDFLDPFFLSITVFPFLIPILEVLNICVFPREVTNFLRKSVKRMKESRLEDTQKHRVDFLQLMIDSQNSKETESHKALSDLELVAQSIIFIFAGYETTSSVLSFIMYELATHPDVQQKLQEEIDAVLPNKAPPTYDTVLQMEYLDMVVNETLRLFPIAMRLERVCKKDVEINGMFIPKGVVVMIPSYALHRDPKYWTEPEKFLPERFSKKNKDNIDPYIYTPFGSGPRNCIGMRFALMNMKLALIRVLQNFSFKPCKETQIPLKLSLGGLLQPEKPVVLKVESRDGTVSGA
The response must be a number in µM with no trailing unit.

Worked examples, 2 molecules total:
c1ccc2cc([C@]34CCC[C@H]3CNC4)ccc2c1    2.65
c1ccc2cc([C@@]34CCC[C@@H]3CNC4)ccc2c1    10.7

Query block: I would be grateful if you could share the reported IC50 for CN1C[C@@H]2CCCC[C@]2(c2ccc(Cl)c(Cl)c2)C1 .
Result block: 5.28

Query block: I would be grateful if you could share the reported IC50 for CN1C[C@H]2CCCC[C@@]2(c2ccc(Cl)c(Cl)c2)C1 (single isomer, unassigned) .
Result block: 6.5

---

- tgt: Sodium-dependent serotonin transporter (Homo sapiens)
- Sequence (P31645 whole entry): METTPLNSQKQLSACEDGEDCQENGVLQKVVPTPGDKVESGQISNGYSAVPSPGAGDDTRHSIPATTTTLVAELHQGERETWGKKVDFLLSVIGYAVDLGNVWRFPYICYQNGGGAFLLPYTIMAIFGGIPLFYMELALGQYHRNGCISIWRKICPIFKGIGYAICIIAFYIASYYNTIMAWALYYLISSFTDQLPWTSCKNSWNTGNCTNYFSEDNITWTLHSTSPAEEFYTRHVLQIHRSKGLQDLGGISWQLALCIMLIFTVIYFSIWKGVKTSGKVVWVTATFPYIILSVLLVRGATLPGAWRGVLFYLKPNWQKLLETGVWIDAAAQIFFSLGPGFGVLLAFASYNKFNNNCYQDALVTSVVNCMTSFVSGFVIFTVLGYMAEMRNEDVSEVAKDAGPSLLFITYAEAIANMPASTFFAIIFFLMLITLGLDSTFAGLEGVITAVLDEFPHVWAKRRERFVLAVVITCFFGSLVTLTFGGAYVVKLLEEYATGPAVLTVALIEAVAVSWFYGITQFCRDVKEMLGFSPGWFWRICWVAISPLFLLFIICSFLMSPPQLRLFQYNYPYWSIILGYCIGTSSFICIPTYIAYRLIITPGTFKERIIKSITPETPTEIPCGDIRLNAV
- experiment-summary: Inhibition of serotonin reuptake at SERT expressed in HEK293 cells
Measured pIC50 values are reported for all entries that follow.
Value format note: pIC50 is -log10 of concentration (mol/L); just state the number.

Worked examples, 3 compounds total:
Clc1ccc([C@]23CCC[C@H]2CNC3)cc1Cl (single isomer, unassigned)    6.30
CCN1C[C@@H]2CCCC[C@]2(c2ccc(Cl)c(Cl)c2)C1 (single isomer, unassigned)    7.16
Clc1ccc([C@@]23CCCC[C@@H]2CNC3)cc1Cl    7.04

Query block: I would be grateful if you could share the reported pIC50 for CN1C[C@@H]2CCCC[C@]2(c2ccc(Cl)cc2Cl)C1 (racemic) .
Result block: 6.46

Query block: I would be grateful if you could share the reported pIC50 for c1ccc2cc([C@@]34CCC[C@@H]3CNC4)ccc2c1 .
Result block: 6.92

---

- experiment-summary: Plasma protein binding in mouse
- Type: ADME, cell-free
- test-settings: read-out: PPB (converted)
measure: fraction unbound
When you answer, write just the number.

Query block: I would be grateful if you could share the reported fraction unbound for Cl.Clc1ccc([C@@]23CCC[C@@H]2CNC3)cc1Cl .
Result block: 0.04

---

- tgt: Sodium-dependent serotonin transporter (Homo sapiens)
- experiment-summary: Inhibition of serotonin reuptake at SERT expressed in HEK293 cells
pIC50: −log10 of the molar value.
I'd appreciate it if you could label each record using pIC50 and these ranges: lower range (below 7), middle range (7 to below 8), upper range (8 or more)

Clc1ccc(C[C@@]23CCCC[C@@H]2CNC3)cc1Cl    middle range
CN1C[C@@H]2CCC[C@]2(c2ccc3ccccc3c2)C1    upper range
CN1C[C@@H]2CCC[C@]2(c2cc(Cl)cc(Cl)c2)C1 (racemic)    lower range

Query block: Category of CN1C[C@H]2CCC[C@@]2(c2ccc(Cl)c(Cl)c2)C1 :
Result block: upper range

Query block: Category of CN1C[C@@H]2CCC[C@]2(c2ccc(F)c(F)c2)C1 (racemic) :
Result block: lower range

Query block: Category of CN1C[C@@H]2CCCC[C@]2(Cc2ccc(Cl)c(Cl)c2)C1 (stereo in doubt) :
Result block: lower range

---

- tgt: Sodium-dependent dopamine transporter (Homo sapiens, UniProt Q01959)
- Sequence (Q01959 whole entry): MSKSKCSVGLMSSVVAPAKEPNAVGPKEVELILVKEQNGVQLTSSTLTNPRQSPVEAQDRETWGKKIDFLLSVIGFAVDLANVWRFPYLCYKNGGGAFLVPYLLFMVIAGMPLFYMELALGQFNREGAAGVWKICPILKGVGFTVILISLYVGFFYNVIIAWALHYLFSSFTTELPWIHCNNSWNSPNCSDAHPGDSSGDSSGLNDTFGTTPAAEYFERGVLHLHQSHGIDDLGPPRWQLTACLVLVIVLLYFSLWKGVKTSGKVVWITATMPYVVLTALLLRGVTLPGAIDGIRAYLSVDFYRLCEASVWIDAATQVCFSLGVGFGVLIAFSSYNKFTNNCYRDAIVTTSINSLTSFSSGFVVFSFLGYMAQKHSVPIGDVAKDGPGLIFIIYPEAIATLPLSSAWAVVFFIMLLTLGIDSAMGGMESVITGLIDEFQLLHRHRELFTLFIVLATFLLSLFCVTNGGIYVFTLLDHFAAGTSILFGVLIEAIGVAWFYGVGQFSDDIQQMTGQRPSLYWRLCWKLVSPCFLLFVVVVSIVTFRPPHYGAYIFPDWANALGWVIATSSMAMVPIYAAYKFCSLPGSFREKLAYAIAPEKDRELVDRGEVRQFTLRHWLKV
- experiment-summary: Inhibition of dopamine reuptake at DAT expressed in CHO-K1 cells
pIC50: −log10 of the molar value.
I'd appreciate it if you could label each record using pIC50 and these ranges: low-valued: < 6; mid-valued: ≥ 6 and < 7; high-valued: ≥ 7

Here are 2 compounds together with their reported answers.
Clc1ccc(C[C@]23CCCC[C@H]2CNC3)cc1Cl    mid-valued
COc1ccc([C@]23CCC[C@H]2CN(C)C3)cc1 (racemic)    low-valued

Query block: Category of CN1C[C@@H]2CCCC[C@]2(c2ccccc2)C1 (racemic) :
Result block: low-valued

Query block: Category of c1ccc2cc([C@@]34CCC[C@@H]3CNC4)ccc2c1 :
Result block: high-valued

Query block: Category of CN1C[C@@H]2CCCC[C@]2(c2cccc3ccccc23)C1 :
Result block: low-valued

Query block: Category of CN1C[C@@H]2CCCC[C@]2(Cc2ccc(Cl)c(Cl)c2)C1 (stereo in doubt) :
Result block: mid-valued

Query block: Category of CN1C[C@@H]2CCC[C@]2(c2ccc(F)c(F)c2)C1 (racemic) :
Result block: low-valued

Query block: Category of CN1C[C@@H]2CCCC[C@]2(c2ccc(F)c(F)c2)C1 (racemic) :
Result block: mid-valued

Query block: Category of CN1C[C@@H]2CCCC[C@]2(c2ccc3ccccc3c2)C1 :
Result block: mid-valued

Query block: Category of CN1C[C@@H]2CCC[C@]2(c2cc(Cl)cc(Cl)c2)C1 (racemic) :
Result block: low-valued

Query block: Category of c1ccc2cc([C@]34CCC[C@H]3CNC4)ccc2c1 :
Result block: high-valued

Query block: Category of COc1cccc([C@]23CCC[C@H]2CN(C)C3)c1 (racemic) :
Result block: low-valued

Query block: Category of CN1C[C@@H]2CCCC[C@]2(c2ccc(Cl)c(Cl)c2)C1 :
Result block: high-valued

Query block: Category of Clc1ccc([C@]23CCCC[C@H]2CNC3)cc1Cl (racemic) :
Result block: mid-valued

Query block: Category of COc1ccc([C@]23CCCC[C@H]2CN(C)C3)cc1OC (racemic) :
Result block: low-valued

Query block: Category of COc1cccc([C@]23CCCC[C@H]2CN(C)C3)c1 (racemic) :
Result block: low-valued

Query block: Category of CN1C[C@@H]2CCC[C@]2(c2ccc3ccccc3c2)C1 :
Result block: mid-valued

Query block: Category of CN1C[C@@H]2CCC[C@]2(c2ccc(Cl)c(Cl)c2)C1 (single isomer, unassigned) :
Result block: high-valued

Query block: Category of Clc1ccc([C@]23CCCC[C@@H]2CNC3)cc1Cl (racemic; 19b) :
Result block: mid-valued

Query block: Category of CCN1C[C@H]2CCCC[C@@]2(c2ccc(Cl)c(Cl)c2)C1 :
Result block: high-valued

Query block: Category of Clc1ccc([C@]23CCCC[C@H]2CNC3)cc1Cl :
Result block: mid-valued

Query block: Category of CN1C[C@H]2CCC[C@@]2(c2ccc3ccccc3c2)C1 :
Result block: high-valued

Query block: Category of CN1C[C@@H]2CCCC[C@]2(c2ccc3ccccc3c2)C1 (racemic) :
Result block: high-valued
